B1: HDV Ribozyme (parent)
chain: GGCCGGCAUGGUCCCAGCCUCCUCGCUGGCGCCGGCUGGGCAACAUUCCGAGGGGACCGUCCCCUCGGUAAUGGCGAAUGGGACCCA

Variants of: B1
assay.remarks: self-cleavage, relative activity (ratio to wild type); higher = more cleavage; co-transcriptional
Consider the following variants; for each one, report its self-cleavage.
Write the value as a bare number.

For the variant shown here, C22G G35U , give the reported self-cleavage.
0.102

For the variant shown here, U27A A51C , give the reported self-cleavage.
0.86

For the variant shown here, C57G G67U , give the reported self-cleavage.
0.8

For the variant shown here, U23A C61A , give the reported self-cleavage.
1.03

For the variant shown here, A43C A71C , give the reported self-cleavage.
0.534

For the variant shown here, G31A C44U , give the reported self-cleavage.
0.0898
